- experiment_description: PSAC antagonists in infected red cells, primary screen, cell-based, P. falciparum Indochina, OD700, 2 h (AID 1155);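 also: lysis reports solute entry through the parasite surface anion channel PSAC; channel blockers reduce lysis of infected cells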
- assay_context: P. falciparum Indochina infected erythrocytes, osmotic lysis OD700, called active from +8 up or from −8 down
The source made the active and inactive calls.
Labels: y = active, n = inactive

INSERT INTO measurements (molecule, group) VALUES
  ('CCCC=C(CCC)[C@@H](NC(=O)c1ccccc1)c1ccccc1', 'n'),
  ('C[C@]1(C(=O)NCCN2CCOCC2)c2ccccc2C(=O)N(Cc2ccccc2)[C@H]1c1ccc(CO)cc1', 'n'),
  ('O=C(NCC(O)CO)[C@]1(Cc2ccccc2)N=C(c2ccc(OCCCO)cc2)O[C@@H]1c1ccccc1 (stereo partly drawn)', 'y'),
  ('O=C(NCc1ccccc1)c1ccc(Br)cc1[N+](=O)[O-]', 'n'),
  ('COc1ccc([Si](C)(C)[C@H]2[C@H](CCO)O[C@@]3(C(=O)N(Cc4ccccc4)c4ccc(N5C(=O)c6cccc7cccc5c67)cc43)[C@@H]2C)cc1', 'n'),
  ('CCOC(=O)C[C@H]1[C@H](OC(=O)c2ccccc2-c2ccccc2)[C@@H](NC(=O)C2CCCCC2)c2cc(OCCCO)ccc2N1C(=O)c1ccccc1', 'n'),
  ('Cc1ccc(S[C@]2(C(=O)O)CC(=O)N(Cc3cc(C(F)(F)F)cc(C(F)(F)F)c3)[C@@H]2c2ccc(CO)cc2I)cc1', 'n'),
  ('COc1ccc(C(O)C2C=CC3C(=O)N(C)C(=O)C3N2N2CCCCC2)cc1OCc1ccccc1 (stereo not drawn)', 'n');

* * *

This section presents molecules with their documented composite z-score values.
- System: Sam68 (KHDRBS1)
- experiment_description: Sam68 small-molecule binders, primary screen, biochemical, small-molecule microarray, 635 nm fluorescence (AID 1125);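 also: score merges 667 nm channel intensity with signal to noise over triplicate slides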
- assay_context: small-molecule microarray binding, higher = more signal
measured_property: composite z-score

INSERT INTO measurements (molecule, measured_property, reported_measurement) VALUES
  ('C=C[C@H](OC)[C@@H](OC(=O)Nc1ccc(SC)cc1)c1ccc(OC)c(O)c1', 'composite z-score', 0.347),
  ('CO[C@H]1COC(=O)CC=C[C@H](C)[C@@H](OC)COC(=O)[C@H](Cc2ccccc2)NC(=O)CC=C[C@@H]1C', 'composite z-score', -0.777),
  ('COCCCNC(=O)[C@@H]1c2ccccc2C(=O)N(CC23CC4CC(CC(C4)C2)C3)[C@H]1c1ccc(CO)cc1', 'composite z-score', 1.27),
  ('CCOC(=O)C1=CC[C@@H](c2ccccc2)N(S(=O)(=O)c2ccc(C)cc2)[C@H]1C', 'composite z-score', 1.29),
  ('CC(C)[Si]1(C(C)C)OCc2cc(C3CC3)nc(-c3ccccc3)c21', 'composite z-score', -0.124),
  ('O=C1OCC=C[C@H]2OC34C=CCN(Cc5ccccc5)C(=O)[C@H]3N(CCCCCO)C(=O)[C@@H]4[C@@H]12 (stereo not given in full)', 'composite z-score', -0.673),
  ('O=C1O[C@@H](c2ccccc2)[C@@H](c2ccccc2)N2[C@@H](c3ccc(O)cc3)[C@]3(C(=O)Nc4ccccc43)[C@@H](C(=O)N3CCN(c4ncccn4)CC3)[C@H]12', 'composite z-score', 0.528),
  ('COc1ccc(C(O)C2C=CC3C(=O)N(C)C(=O)C3N2N2CCCCC2)cc1OCc1ccccc1 (stereo not given)', 'composite z-score', 1.29),
  ('CCOC(=O)C[C@H]1[C@H](OC(=O)c2ccccc2-c2ccccc2)[C@@H](NC(=O)c2ccc(-c3ccccc3)cc2)c2cc(OCCCO)ccc2N1C(=O)Cc1ccc(OC)cc1', 'composite z-score', 0.406),
  ('O=C1c2ccccc2[C@@]2(Cc3ccccc3N(CC(F)(F)F)C2=O)[C@H](c2ccc(CO)cc2)N1C1CCCCC1', 'composite z-score', 0.588),
  ('O=C1O[C@H](c2ccccc2)[C@H](c2ccccc2)N2[C@H]1[C@@H](C(=O)NC[C@H](O)c1ccccc1)[C@]1(C(=O)Nc3ccc(C#CC4(O)CCCCCC4)cc31)[C@H]2c1ccc(OCCO)cc1', 'composite z-score', 1.31),
  ('CO[C@@H]1COC(=O)[C@H](C)NC(=O)CC=C[C@@H](C)[C@H](NS(=O)(=O)c2ccc(C)cc2)COC(=O)CC=C[C@@H]1C', 'composite z-score', -0.354),
  ('C=C(/C(=C/C[C@@H](OC(=O)c1ccncc1)c1ccc(CO)o1)c1cnc2ccccc2c1)C(C)C', 'composite z-score', 1.3),
  ('Cc1cc(C)c(C(O)C2C=CC3C(=O)N(C)C(=O)C3N2N2CCCCC2)c(C)c1 (stereo not given)', 'composite z-score', 1.29),
  ('CO[C@H]1O[C@H](CO)[C@@H](OC(=O)CCc2ccccc2)[C@@H]2OC(=O)[C@H](Cc3cccc(Br)c3)C/C=C/C[C@@H](Cc3cccc(Br)c3)C(=O)O[C@@H]12', 'composite z-score', 0.7);

* * *

- experiment_description: binders of probe aHhip on microarray, primary screen, stem cell growth factor project, biochemical, small-molecule microarray, fluorescence 635/667 (AID 1087);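 also: score merges spot fluorescence at 667nm with spot signal to noise ratio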
- assay_context: higher = more signal
measured_property: composite z-score

INSERT INTO results (compound, measured_property, reported_measurement) VALUES
  ('O=C1c2ccccc2[C@](Cc2ccccc2I)(C(=O)NCc2ccccc2)[C@H](c2ccc(CO)cc2)N1Cc1ccccc1C(F)(F)F', 'composite z-score', -0.134),
  ('C=CCc1cccc([C@@H]2[C@@H](C)CC[C@H]3C(=O)N4[C@H](c5cccc(CC=C)c5)[C@@H](C)CC[C@H]4C(=O)N23)c1', 'composite z-score', 0.154),
  ('Cc1ccc(S(=O)(=O)N2[C@@H](c3ccccc3)C(C(=O)O)=CC[C@H]2c2ccccc2)cc1', 'composite z-score', 0.0854),
  ('C=CCC(OC(C)=O)[C@@H]1[C@@H](N(Cc2cccc3ccccc23)C(=O)Cc2ccc(F)cc2)c2cc(OCCCO)ccc2N1C(=O)Cc1ccc2ccccc2c1 (stereo partly specified)', 'composite z-score', -0.167),
  ('CN(C)CCCC[C@@H]1NC(=O)[C@@H]2C[C@H](C(=O)O)[C@H](c3ccc(O)cc3)N2C1=O', 'composite z-score', -0.279),
  ('CCCNC(=O)[C@@H]1c2ccccc2C(=O)N(Cc2cc(F)cc(C(F)(F)F)c2)[C@H]1c1ccc(CO)cc1', 'composite z-score', 0.0176);

* * *

- Tested on: Noggin (protein binding on small-molecule microarray)
- experiment_description: Noggin binders on small-molecule microarray, primary screen, biochemical, 635/667 nm fluorescence (AID 1095);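 also: score merges 667 nm feature fluorescence with signal to noise over triplicate slides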
- assay_context: 635 nm fluorescence, higher = more signal
Label Satisfied when composite z-score >= -0.3; otherwise Not satisfied.

INSERT INTO measurements (molecule, tested_on, group) VALUES
  ('Cc1ccc(S(=O)(=O)N2[C@@H](c3ccccc3)C(C(=O)O)=CC[C@H]2c2ccccc2)cc1', 'Noggin (protein binding on small-molecule microarray)', 'Satisfied'),
  ('C=CCOC(=O)[C@@H]1[C@H]2C(=O)O[C@H](c3ccccc3)[C@H](c3ccccc3)N2[C@H](c2ccc(OCCOC(=O)[C@H]3C[C@H]4C(=O)N[C@@H](CCCCNC(C)=O)C(=O)N4[C@H]3c3ccc(O)cc3)cc2)[C@@]12C(=O)Nc1ccc(I)cc12', 'Noggin (protein binding on small-molecule microarray)', 'Satisfied'),
  ('COCC(=C=CC[C@H](O)c1ccc(OCCO)cc1)C[C@H](O)c1ccccn1', 'Noggin (protein binding on small-molecule microarray)', 'Satisfied'),
  ('C[C@@H]1NC(=O)CC=C[C@@H](C)[C@@H]2C=C[C@H](O)[C@@H](COC(=O)[C@H](C)NC(=O)CC=C[C@@H](C)[C@@H]3C=C[C@H](O)[C@@H](COC1=O)O3)O2', 'Noggin (protein binding on small-molecule microarray)', 'Satisfied'),
  ('CO[C@H]1COC(=O)[C@@H](C)NC(=O)CC=C[C@@H](C)[C@H](OC)COC(=O)CC=C[C@@H]1C', 'Noggin (protein binding on small-molecule microarray)', 'Satisfied'),
  ('C=C(C)[C@@H]1CC=C(C(O)C2C=CC3C(=O)NC(=O)C3N2Nc2ccccn2)CC1 (some centres undefined)', 'Noggin (protein binding on small-molecule microarray)', 'Satisfied'),
  ('O=C1OCC=C[C@H]2OC34C=CCN(Cc5ccccc5)C(=O)[C@H]3N(CCO)C(=O)[C@@H]4[C@@H]12 (some centres undefined)', 'Noggin (protein binding on small-molecule microarray)', 'Not satisfied'),
  ('CC(C)NC(=O)[C@@]1(Cc2ccccc2I)c2ccccc2C(=O)N(C2CCCCC2)[C@H]1c1ccc(CO)cc1', 'Noggin (protein binding on small-molecule microarray)', 'Satisfied'),
  ('CCOC(=O)C1=CCC(c2cccc3ccccc23)N(S(=O)(=O)c2ccc(C)cc2)C1 (centres undefined)', 'Noggin (protein binding on small-molecule microarray)', 'Not satisfied'),
  ('CCCC=C(CCC)[C@@H](NS(=O)(=O)c1ccc(C(F)(F)F)cc1)c1ccc(-c2ccccc2)cc1', 'Noggin (protein binding on small-molecule microarray)', 'Satisfied'),
  ('C[N+](C)(C)CCCCNC(=O)[C@H]1C[C@H]2C(=O)NCC(=O)N2[C@H]1c1cccc(OCCO)c1', 'Noggin (protein binding on small-molecule microarray)', 'Satisfied'),
  ('C=CC[C@@]1(C(=O)NCC(O)CO)N=C(c2ccc(OCCCO)cc2)O[C@@H]1c1ccccc1CN=[N+]=[N-] (some centres undefined)', 'Noggin (protein binding on small-molecule microarray)', 'Satisfied'),
  ('O=C/C=C/c1ccc(/C=C/c2ccccc2)cc1', 'Noggin (protein binding on small-molecule microarray)', 'Not satisfied'),
  ('CCCNC(=O)[C@@]1(Sc2ccc(C)cc2)CC(=O)N(Cc2ccccc2Cl)[C@@H]1c1ccc(CO)cc1', 'Noggin (protein binding on small-molecule microarray)', 'Satisfied'),
  ('CC(C)C[C@@H]1NC(=O)[C@H]2C[C@@H](C(=O)NCCCCCC[N+](C)(C)C)[C@@H](c3ccc(O)cc3)N2C1=O', 'Noggin (protein binding on small-molecule microarray)', 'Satisfied'),
  ('COC(=O)[C@@]1(Cc2ccccc2N=[N+]=[N-])N=C(c2ccc(OCCCO)cc2)O[C@H]1c1ccccc1CN=[N+]=[N-]', 'Noggin (protein binding on small-molecule microarray)', 'Satisfied'),
  ('CO[C@@H]1COC(=O)[C@@H]2CCCN2C(=O)CC=C[C@@H](C)[C@H](OC)COC(=O)[C@@H]2CCCN2C(=O)CC=C[C@H]1C', 'Noggin (protein binding on small-molecule microarray)', 'Satisfied'),
  ('COCCOC(=O)N1C(=O)[C@@]2(c3cc(C#CCNC(N)=O)ccc31)[C@H](c1ccc(OCCO)cc1)N1[C@H](c3ccccc3)[C@H](c3ccccc3)OC(=O)[C@H]1[C@@H]2C(=O)N1CCCCCCC1', 'Noggin (protein binding on small-molecule microarray)', 'Satisfied'),
  ('O=C(N1CCCCC1)[C@@]1(CCS(=O)(=O)c2ccccc2)N=C(c2ccc(OCCCO)cc2)O[C@H]1c1ccccc1', 'Noggin (protein binding on small-molecule microarray)', 'Satisfied'),
  ('NC(=O)[C@H]1[C@@H]2C(=O)O[C@@H](c3ccccc3)[C@@H](c3ccccc3)N2[C@@H](c2ccc(O)cc2)[C@]12C(=O)Nc1ccc(C#CCCO)cc12', 'Noggin (protein binding on small-molecule microarray)', 'Not satisfied'),
  ('Cc1ccc(S[C@]2(C(=O)O)CC(=O)N(Cc3ccccc3)[C@@H]2c2ccc(CO)cc2)cc1', 'Noggin (protein binding on small-molecule microarray)', 'Not satisfied'),
  ('CC(C)(C)OC(=O)CC[C@]1(C(=O)NCCN2CCOCC2)N=C(c2ccc(OCCCO)cc2)O[C@H]1c1ccccc1CN=[N+]=[N-]', 'Noggin (protein binding on small-molecule microarray)', 'Not satisfied'),
  ('COc1ccc([Si](C)(C)[C@H]2[C@H](CCO)O[C@@]3(C(=O)N(Cc4ccccc4)c4ccc(N5C(=O)c6cccc7cccc5c67)cc43)[C@@H]2C)cc1', 'Noggin (protein binding on small-molecule microarray)', 'Not satisfied'),
  ('O=C/C=C/c1ccccc1Cl', 'Noggin (protein binding on small-molecule microarray)', 'Not satisfied'),
  ('COCCCNC(=O)[C@@]1(c2ccc([N+](=O)[O-])cc2)CC(=O)N(C2CCCCC2)[C@@H]1c1ccc(CO)cc1', 'Noggin (protein binding on small-molecule microarray)', 'Not satisfied'),
  ('C=C(COC)C(=O)CC[C@H](OC(=O)c1ccccc1-c1ccccc1C(=O)O)c1cccc(OCCO)c1', 'Noggin (protein binding on small-molecule microarray)', 'Satisfied'),
  ('CO[C@H]1COC(=O)CC=C[C@H](C)[C@@H](OC)COC(=O)[C@H](Cc2ccccc2)NC(=O)CC=C[C@@H]1C', 'Noggin (protein binding on small-molecule microarray)', 'Satisfied'),
  ('CO[C@H]1O[C@H](CO)[C@@H](OC(=O)Nc2ccc(Oc3ccccc3)cc2)[C@H](OC(=O)Nc2ccccc2-c2ccccc2)[C@H]1OC(=O)Nc1ccccc1-c1ccccc1', 'Noggin (protein binding on small-molecule microarray)', 'Satisfied'),
  ('CC(C)CNC(=O)[C@@]1(C)c2ccccc2C(=O)N(Cc2ccc(OC(F)(F)F)cc2)[C@H]1c1ccc(CO)cc1', 'Noggin (protein binding on small-molecule microarray)', 'Not satisfied');

Where do these numbers come from? They come from PubChem BioAssay.
